Some molecules, each annotated with its measured fraction unbound at 1 μM.
- METHOD SUMMARY: Protein binding assay, rat brain homogenates (rapid equilibrium dialysis)
- Type: in vitro ADME
- ASSAY SETUP: rat brain homogenate, % bound, criterion <99%
RESULT TYPE: fraction unbound at 1 μM

>>> assay_result("COc1ccc(-n2nc(C(=O)N3CCC(CCF)CC3)c3csc(N)c3c2=O)cc1 [Compound 56]")
0.448
>>> assay_result("CC(C)NC(=O)c1nn(-c2ccc(F)cc2)c(=O)c2c(N)scc12 [Compound 14]")
0.383
>>> assay_result("COc1ccc(-n2nc(C(=O)N3CCC(CF)CC3)c3csc(N)c3c2=O)cc1.Cl [Compound 81]")
0.589
>>> assay_result("CC(C)NC(=O)c1nn(-c2ccc([N+](=O)[O-])cc2)c(=O)c2c(N)scc12 [Compound 105]")
0.112
>>> assay_result("CC(C)NC(=O)c1nn(-c2ccc(Cl)cc2)c(=O)c2c(N)scc12 [ATPZ, reference compound]")
0.0906
>>> assay_result("CC(C)NC(=O)c1nn(-c2ccc(O)cc2)c(=O)c2c(N)scc12 [Compound 58]")
0.506
>>> assay_result("COc1ccc(-n2nc(C(=O)N3CCN(c4cccc(F)n4)CC3)c3csc(N)c3c2=O)cc1 [Compound 90]")
0.112
>>> assay_result("CC(C)NC(=O)c1nn(-c2ccc(OCCF)cc2)c(=O)c2c(N)scc12 [Compound 38]")
0.428

----------
- METHOD SUMMARY: In vivo cold bio-distribution in rat (brain uptake, LC-MS)
- ASSAY SETUP: male, Wistar, rat, brain, iv, 50 μg/rat, 60 min p.i.
RESULT TYPE: tissue uptake at 60 min

>>> assay_result("COc1ccc(-n2nc(NCCF)c3csc(N)c3c2=O)cc1 [Compound 99]")
"0.001 %ID/g"
>>> assay_result("CC(C)NC(=O)c1nn(-c2ccc(OCCF)cc2)c(=O)c2c(N)scc12 [Compound 38]")
"0.011 %ID/g"
>>> assay_result("COc1ccc(-n2nc(C(=O)NCCF)c3csc(N)c3c2=O)cc1 [Compound 106]")
"0.001 %ID/g"

----------
- Test system: human liver microsomes
- METHOD SUMMARY: Liver microsome stability assay, human
- Assay type: in vitro ADME
- ASSAY SETUP: 1 μM, 37° C., 5 min; parent compound remaining; criterion >50%
RESULT TYPE: Liver stability Human (% PCP) 5 min

>>> assay_result("COc1ccc(-n2nc(C(=O)N3CCC(CCF)CC3)c3csc(N)c3c2=O)cc1")
80.98
>>> assay_result("COc1ccc(-n2nc(C(=O)N3CCN(c4cccc(F)n4)CC3)c3csc(N)c3c2=O)cc1")
44.62
>>> assay_result("CC(C)NC(=O)c1nn(-c2ccc(F)cc2)c(=O)c2c(N)scc12")
92.1
>>> assay_result("COc1ccc(-n2nc(C(=O)N3CCC(CF)CC3)c3csc(N)c3c2=O)cc1.Cl")
91.63
>>> assay_result("CC(C)NC(=O)c1nn(-c2ccc([N+](=O)[O-])cc2)c(=O)c2c(N)scc12")
91.5
>>> assay_result("CC(C)NC(=O)c1nn(-c2ccc(OCCF)cc2)c(=O)c2c(N)scc12")
87.2
>>> assay_result("CC(C)NC(=O)c1nn(-c2ccc(Cl)cc2)c(=O)c2c(N)scc12 [ATPZ, reference compound]")
98.9
>>> assay_result("CC(C)NC(=O)c1nn(-c2ccc(O)cc2)c(=O)c2c(N)scc12")
100.9

----------
Some compounds, each annotated with its measured tissue uptake at 30 min.
- METHOD SUMMARY: In vivo cold bio-distribution in rat (brain uptake, LC-MS)
- ASSAY SETUP: male, Wistar, rat, brain, iv, 50 μg/rat, 30 min p.i.
RESULT TYPE: tissue uptake at 30 min (%ID/g)

>>> assay_result("COc1ccc(-n2nc(C(=O)NCCF)c3csc(N)c3c2=O)cc1")
0.004
>>> assay_result("CC(C)NC(=O)c1nn(-c2ccc(OCCF)cc2)c(=O)c2c(N)scc12")
0.021
>>> assay_result("COc1ccc(-n2nc(NCCF)c3csc(N)c3c2=O)cc1")
0.013

----------
- Test system: rat liver microsomes
- METHOD SUMMARY: Liver microsome stability assay, rat
- Assay type: in vitro ADME
- ASSAY SETUP: 1 μM, 37° C., 30 min; parent compound remaining; criterion >50%
Mark 1.0 for Liver stability Rat (% PCP) 30 min under 60 % PCP, 0.0 if at or over.

>>> label_class("COc1ccc(-n2nc(C(=O)N3CCC(CF)CC3)c3csc(N)c3c2=O)cc1.Cl [Compound 81]")
1.0
>>> label_class("CC(C)NC(=O)c1nn(-c2ccc(F)cc2)c(=O)c2c(N)scc12 [Compound 14]")
0.0
>>> label_class("CC(C)NC(=O)c1nn(-c2ccc(O)cc2)c(=O)c2c(N)scc12 [Compound 58]")
0.0
>>> label_class("CC(C)NC(=O)c1nn(-c2ccc(OCCF)cc2)c(=O)c2c(N)scc12 [Compound 38]")
1.0
>>> label_class("COc1ccc(-n2nc(C(=O)N3CCC(CCF)CC3)c3csc(N)c3c2=O)cc1 [Compound 56]")
0.0
>>> label_class("COc1ccc(-n2nc(C(=O)N3CCN(c4cccc(F)n4)CC3)c3csc(N)c3c2=O)cc1 [Compound 90]")
1.0
>>> label_class("CC(C)NC(=O)c1nn(-c2ccc(Cl)cc2)c(=O)c2c(N)scc12 [ATPZ, reference compound]")
0.0

----------
- Tested on: Aβ+ plaques
- METHOD SUMMARY: Tissue binding assay (fluorescence), plaques in human AD tissue sections
- Parameters: key: −: No staining; +: weak staining; ++: moderate staining; +++: intense staining
- ASSAY SETUP: Table 2; 10 μM, human AD tissue
RESULT TYPE: Plaques (staining)

>>> assay_result("CC(=C(C#N)C#N)c1ccc2cc(N(C)CCF)ccc2c1 [FDDNP, reference compound]")
"++"
>>> assay_result("CC(C)NC(=O)c1nn(-c2ccc(F)cc2)c(=O)c2c(N)scc12")
"−"
>>> assay_result("CC(C)NC(=O)c1nn(-c2ccc([N+](=O)[O-])cc2)c(=O)c2c(N)scc12")
"−"
>>> assay_result("CC(C)NC(=O)c1nn(-c2ccc(Cl)cc2)c(=O)c2c(N)scc12 [ATPZ, reference compound]")
"−"
>>> assay_result("COc1ccc(-n2nc(C(=O)NC(C)C)c3csc(N(C)C)c3c2=O)cc1")
"−"
>>> assay_result("CC(C)NC(=O)c1nn(-c2ccc(OCCF)cc2)c(=O)c2c(N)scc12")
"+"
>>> assay_result("[11CH3]Nc1ccc(-c2nc3ccc(O)cc3s2)cc1 [PiB, Pittsburgh compound B, reference compound]")
"++"

----------
Some compounds, each annotated with its measured Liver stability Human (% PCP) 30 min.
- Tested on: human liver microsomes
- METHOD SUMMARY: Liver microsome stability assay, human
- Format: in vitro ADME
- ASSAY SETUP: 1 μM, 37° C., 30 min; parent compound remaining; criterion >50%
RESULT TYPE: Liver stability Human (% PCP) 30 min

>>> assay_result("CC(C)NC(=O)c1nn(-c2ccc(F)cc2)c(=O)c2c(N)scc12 [Compound 14]")
"61.3 % PCP"
>>> assay_result("CC(C)NC(=O)c1nn(-c2ccc(OCCF)cc2)c(=O)c2c(N)scc12 [Compound 38]")
"74.4 % PCP"
>>> assay_result("CC(C)NC(=O)c1nn(-c2ccc(O)cc2)c(=O)c2c(N)scc12 [Compound 58]")
"83.4 % PCP"
>>> assay_result("COc1ccc(-n2nc(C(=O)N3CCC(CCF)CC3)c3csc(N)c3c2=O)cc1 [Compound 56]")
"52.10 % PCP"
>>> assay_result("CC(C)NC(=O)c1nn(-c2ccc([N+](=O)[O-])cc2)c(=O)c2c(N)scc12 [Compound 105]")
"73.2 % PCP"
>>> assay_result("CC(C)NC(=O)c1nn(-c2ccc(Cl)cc2)c(=O)c2c(N)scc12 [ATPZ, reference compound]")
"68.29 % PCP"
>>> assay_result("COc1ccc(-n2nc(C(=O)N3CCC(CF)CC3)c3csc(N)c3c2=O)cc1.Cl [Compound 81]")
"73.10 % PCP"
>>> assay_result("COc1ccc(-n2nc(C(=O)N3CCN(c4cccc(F)n4)CC3)c3csc(N)c3c2=O)cc1 [Compound 90]")
"2.57 % PCP"

----------
- METHOD SUMMARY: In vivo cold bio-distribution in rat (brain uptake, LC-MS)
- ASSAY SETUP: male, Wistar, rat, brain, iv, 50 μg/rat, 2 min p.i.
Some compounds, each annotated with its measured tissue uptake at 2 min.
RESULT TYPE: tissue uptake at 2 min

>>> assay_result("COc1ccc(-n2nc(C(=O)NCCF)c3csc(N)c3c2=O)cc1 [Compound 106]")
"0.014 %ID/g"
>>> assay_result("CC(C)NC(=O)c1nn(-c2ccc(OCCF)cc2)c(=O)c2c(N)scc12 [Compound 38]")
"> 0.2 %ID/g"
>>> assay_result("COc1ccc(-n2nc(NCCF)c3csc(N)c3c2=O)cc1 [Compound 99]")
"> 0.2 %ID/g"
